# experimental system: MMP-13 (Homo sapiens)
# Construct: made in house; host or cells: baculovirus / insect cells
# experiment: biochemical
# condition description: recombinant human MMP-13, MCA peptide substrate 4 μM, pH 7.5, room temperature; read-out: MMP-13 IC50
We begin with a simple list: items and their reported IC50.

| compound | IC50 |
| --- | --- |
| O=C(NO)C1(S(=O)(=O)c2ccc(N3CCC(OCc4ccc(COc5ccccc5)cc4)CC3)cc2)CCOCC1 | 8 nM |
| C=Cc1cccc(C(=O)C2CCN(c3ccc(S(=O)(=O)C4(C(=O)NO)CCOCC4)cc3)CC2)c1 | 3.7 nM |
| CC1CC(C)CN(C(=O)C2CCN(c3ccc(S(=O)(=O)C4(C(=O)NO)CCOCC4)cc3)CC2)C1 (stereo not shown) [Example 54] | 40 nM |
| O=C(NO)C1(S(=O)(=O)c2ccc(N3CCC(CC4CC4)CC3)cc2)CCOCC1 | 1200 nM |

----------
# experimental system: MMP-13 (Homo sapiens, UniProt P45452)
# Construct: made in house; host or cells: baculovirus / insect cells
# experiment: biochemical
# condition description: recombinant human MMP-13, MCA peptide substrate 4 μM, pH 7.5, room temperature; read-out: MMP-13 IC50
Structures can show the parent of a compound that is named as a salt.
measured attribute: log10(IC50) (log10 of the value in nM)

| compound | log10(IC50) |
| --- | --- |
| O=C(NO)C1(S(=O)(=O)c2ccc(Oc3ccc(C(F)(F)F)cc3)cc2)CCN(c2ncccc2C(F)(F)F)CC1 [Example 375] | 1.23 |
| CC(C)(C)OC1CCN(c2ccc(S(=O)(=O)C3(C(=O)NO)CCOCC3)cc2)CC1 [Example 693] | 2.32 |
| CC1CC(C)CN(C(=O)C2CCN(c3ccc(S(=O)(=O)C4(C(=O)NO)CCN(C(=O)CNCc5cccnc5)CC4)cc3)CC2)C1 (stereo not shown) [Example 278] | 1.29 |
| Cc1cc(C(=O)C2CCN(c3ccc(S(=O)(=O)C4(C(=O)NO)CCOCC4)cc3)CC2)ccc1Cl [Example 858] | 0.57 |
| COCCN1CCC(C(=O)NO)(S(=O)(=O)c2ccc(N3CCC(C(=O)Nc4cccc(OC(F)(F)F)c4)CC3)cc2)CC1 [Example 249, Monohydrochloride] | 1.11 |
| CCC(CC)COCc1ccc(COC2CCN(c3ccc(S(=O)(=O)C4(C(=O)NO)CCOCC4)cc3)CC2)cc1 [Example 602] | 1.85 |
| O=C(NCc1ccccc1)OC1CCN(c2ccc(S(=O)(=O)C3(C(=O)NO)CCOCC3)cc2)CC1 [Example 520] | 1.35 |

----------
# experimental system: MMP-13 (Homo sapiens)
# Construct: made in house; host or cells: baculovirus / insect cells
# experiment: biochemical
# condition description: recombinant human MMP-13, MCA peptide substrate 4 μM, pH 7.5, room temperature; read-out: MMP-13 IC50
pIC50: −log10 of the molar value. Where a name gives a salt, the structure may show the parent alone.
Each entry gets condition not met if its pIC50 stays under 8, and condition met if its pIC50 is 8 or above.

| compound | label class |
| --- | --- |
| O=C(NO)C1(S(=O)(=O)c2ccc(N3CCN(Cc4ccccc4)CC3)cc2)CCOCC1 | condition not met |
| C=CCN(CC=C)C(=O)C1CCN(c2ccc(S(=O)(=O)C3(C(=O)NO)CCOCC3)cc2)CC1 | condition not met |
| O=C(Nc1c(Cl)cccc1Cl)N1CCC(C(=O)NO)(S(=O)(=O)c2ccc(Oc3ccc(OC(F)(F)F)cc3)cc2)CC1 | condition met |
| COc1cc2c(cc1OC)CN(c1ccc(S(=O)(=O)C3(C(=O)NO)CCN(C4CC4)CC3)cc1)CC2 | condition not met |
| O=C(NO)C1(S(=O)(=O)c2ccc(Oc3ccc(OC(F)(F)F)cc3)cc2)CCN(CCCN2CCOCC2)CC1 [Example 264, Dihydrochloride] | condition met |
| O=C(Nc1ccc(F)cc1F)N1CCC(C(=O)NO)(S(=O)(=O)c2ccc(Oc3ccc(OC(F)(F)F)cc3)cc2)CC1 | condition met |
| CN(CCc1ccccc1)C1CCN(c2ccc(S(=O)(=O)C3(C(=O)NO)CCOCC3)cc2)CC1 | condition not met |
| O=C(c1cccc(OC(F)(F)F)c1)C1CCN(c2ccc(S(=O)(=O)C3(C(=O)NO)CCOCC3)cc2)CC1 | condition not met |
| CC1CC(C)CN(C(=O)C2CCN(c3ccc(S(=O)(=O)C4(C(=O)NO)CCN(C(=O)CN5CCN(CCOCCO)CC5)CC4)cc3)CC2)C1 (centres unmarked) | condition not met |
| O=C(Cn1ccnc1)N1CCC(C(=O)NO)(S(=O)(=O)c2ccc(Oc3ccc(C(F)(F)F)cc3)cc2)CC1 | condition met |

----------
# experimental system: MMP-2 (Homo sapiens, UniProt P08253)
# Construct: made in house; provided by Dr. Gregory Goldberg, Washington University
# Sequence (P08253 110-660): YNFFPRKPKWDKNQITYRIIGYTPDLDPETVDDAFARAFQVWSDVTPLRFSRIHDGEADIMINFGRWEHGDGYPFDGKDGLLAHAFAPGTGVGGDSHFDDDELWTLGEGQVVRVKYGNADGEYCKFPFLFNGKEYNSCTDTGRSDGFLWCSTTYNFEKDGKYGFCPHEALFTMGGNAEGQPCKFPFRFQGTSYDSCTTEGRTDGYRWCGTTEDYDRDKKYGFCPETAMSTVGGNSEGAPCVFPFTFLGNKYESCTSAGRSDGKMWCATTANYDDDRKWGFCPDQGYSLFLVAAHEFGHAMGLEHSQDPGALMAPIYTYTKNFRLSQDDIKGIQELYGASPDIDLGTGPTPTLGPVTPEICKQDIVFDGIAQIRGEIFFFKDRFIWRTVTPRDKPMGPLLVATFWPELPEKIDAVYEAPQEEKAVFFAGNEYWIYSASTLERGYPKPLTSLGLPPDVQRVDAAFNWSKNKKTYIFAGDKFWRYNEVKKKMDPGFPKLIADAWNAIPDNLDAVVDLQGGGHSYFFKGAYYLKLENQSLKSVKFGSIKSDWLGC
# experiment: biochemical
# condition description: recombinant human MMP-2, MCA peptide substrate 4 μM, pH 7.5, room temperature; read-out: MMP-2 IC50
Rule: measured IC50 below 0.7 µM gets Yes; anything equal to or greater than 0.7 µM gets No.

| molecule | label class |
| --- | --- |
| C=C(C)c1ccc(N2CCN(c3ccc(S(=O)(=O)C4(C(=O)NO)CCN(C5CC5)CC4)cc3)CC2)cc1 [Example 360] | Yes |
| COc1ccc(CCCOC2CCN(c3ccc(S(=O)(=O)C4(C(=O)NO)CCOCC4)cc3)CC2)cc1OC [Example 811] | Yes |
| CC(=O)c1ccccc1S(=O)(=O)N1CC(Oc2ccc(S(=O)(=O)C3(C(=O)NO)CCOCC3)cc2)C1 [Example 854] | No |
| O=C(CNCc1ccncc1)N1CCC(C(=O)NO)(S(=O)(=O)c2ccc(Oc3ccc(C(F)(F)F)cc3)cc2)CC1 [Example 325] | Yes |
| CCCCOC1CCN(c2ccc(S(=O)(=O)C3(C(=O)NO)CCNCC3)cc2)CC1 [Example 443] | No |
| O=C(Cn1ccnc1)N1CCC(C(=O)NO)(S(=O)(=O)c2ccc(Oc3ccc(C(F)(F)F)cc3)cc2)CC1 [Example 317] | Yes |
| O=C(CN1CCCC1)N1CCC(C(=O)NO)(S(=O)(=O)c2ccc(Oc3ccc(C(F)(F)F)cc3)cc2)CC1 [Example 326] | Yes |
| CC1CC(C)CN(C(=O)C2CCN(c3ccc(S(=O)(=O)C4(C(=O)NO)CCN(C(=O)CN5CCCC5=O)CC4)cc3)CC2)C1 (stereo not drawn) [Example 314] | No |
| CCOC1CCCN(c2ccc(S(=O)(=O)C3(C(=O)NO)CCOCC3)cc2)C1 (stereo not drawn) [Example 562] | No |
| CC(=O)c1ccc(OC2CCN(c3ccc(S(=O)(=O)C4(C(=O)NO)CCOCC4)cc3)CC2)cc1 [Example 470] | No |
| Cc1ccc(COC2CCN(c3ccc(S(=O)(=O)C4(C(=O)NO)CCOCC4)cc3)CC2)cc1 [Example 172] | Yes |
| CC1CN(c2ccc(S(=O)(=O)C3(C(=O)NO)CCOCC3)cc2)CCC1OCc1ccc(F)cc1 (stereo not drawn) [Example 582] | No |
| O=C(NO)C1(S(=O)(=O)c2ccc(Oc3ccc(OC(F)(F)F)cc3)cc2)CCN(S(=O)(=O)c2ccccc2)CC1 [Example 194] | Yes |

----------
# experimental system: MMP-2 (Homo sapiens, UniProt P08253)
# Construct: made in house; provided by Dr. Gregory Goldberg, Washington University
# experiment: biochemical
# condition description: recombinant human MMP-2, MCA peptide substrate 4 μM, pH 7.5, room temperature; read-out: MMP-2 IC50
pIC50: −log10 of the molar value. Counter-ions that a name gives are not always drawn.
pIC50 vs 7: at or above is TRUE, below is FALSE.

| compound | label class |
| --- | --- |
| Cc1cccc(COC2CCC(Oc3ccc(S(=O)(=O)C4(C(=O)NO)CCOCC4)cc3)C2)c1 (centres unmarked) [Example 651] | TRUE |
| O=C(NO)C1(S(=O)(=O)c2ccc(N3CCC(CCOCc4ccccc4)CC3)cc2)CCOCC1 | TRUE |
| O=C(NO)C1(S(=O)(=O)c2ccc(N3CCC(Oc4ccccc4O)CC3)cc2)CCOCC1 | TRUE |
| O=C(NO)C1(S(=O)(=O)c2ccc(N3CCC(Oc4ccc([N+](=O)[O-])c(F)c4)CC3)cc2)CCOCC1 | FALSE |
| O=C(NO)C1(S(=O)(=O)c2ccc(N3CCC(CCOCc4ccc(F)cc4)CC3)cc2)CCOCC1 | TRUE |
| O=C(NO)C1(S(=O)(=O)c2ccc(N3CCC(OCc4ccccc4Cl)CC3)cc2)CCOCC1 | FALSE |
| Cn1cnc(S(=O)(=O)N2CCN(c3ccc(S(=O)(=O)C4(C(=O)NO)CCOCC4)cc3)CC2)c1 | FALSE |
| COCCN1CCC(C(=O)NO)(S(=O)(=O)c2ccc(N3CCC(C(=O)N(C)CCc4ccccn4)CC3)cc2)CC1 [Example 235, Dihydrochloride] | FALSE |
| O=C(NO)C1(S(=O)(=O)c2ccc(N3CCC(OCc4ccc(COCC(F)(F)C(F)(F)F)cc4)CC3)cc2)CCOCC1 | FALSE |
| O=C(NO)C1(S(=O)(=O)c2ccc(Oc3ccc(OC(F)(F)F)cc3)cc2)CCN(C(=S)NCCN2CCCCC2)CC1 | TRUE |
| CN(C)c1ccc(S(=O)(=O)C2CCN(c3ccc(S(=O)(=O)C4(C(=O)NO)CCOCC4)cc3)CC2)cc1 | FALSE |
| CC1CC(C)CN(C(=O)C2CCN(c3ccc(S(=O)(=O)C4(C(=O)NO)CCN(C(=O)CN5CCN(C)CC5)CC4)cc3)CC2)C1 (centres unmarked) | FALSE |
| O=C(NO)C1(S(=O)(=O)c2ccc(N3CCC(Oc4c(Cl)cc(C(F)(F)F)cc4Cl)CC3)cc2)CCOCC1 | FALSE |
| O=C(NO)C1(S(=O)(=O)c2ccc(N3CCC(CC4CC4)CC3)cc2)CCOCC1 | FALSE |
| O=C(Nc1c(Cl)cccc1Cl)N1CCC(C(=O)NO)(S(=O)(=O)c2ccc(Oc3ccc(OC(F)(F)F)cc3)cc2)CC1 | TRUE |
| O=C(NO)C1(S(=O)(=O)c2ccc(N3CCN(S(=O)(=O)c4ccccc4OC(F)(F)F)CC3)cc2)CCOCC1 | FALSE |
| CCN(CCCCC(=O)N1CCC(C(=O)NO)(S(=O)(=O)c2ccc(Oc3ccc(C(F)(F)F)cc3)cc2)CC1)Cc1ccncc1 | TRUE |
| O=C(CCCCN1CCCC1)N1CCC(C(=O)NO)(S(=O)(=O)c2ccc(Oc3ccc(C(F)(F)F)cc3)cc2)CC1 | TRUE |
| CSc1nccc(N2CCC(C(=O)NO)(S(=O)(=O)c3ccc(Oc4ccc(OC(F)(F)F)cc4)cc3)CC2)n1 | TRUE |
| O=C(NO)C1(S(=O)(=O)c2ccc(N3CCc4ccccc4C3)cc2)CCN(C2CC2)CC1 | TRUE |
| COc1cccc(S(=O)(=O)N2CC(Oc3ccc(S(=O)(=O)C4(C(=O)NO)CCOCC4)cc3)C2)c1 | TRUE |
| COCCN1CCC(C(=O)NO)(S(=O)(=O)c2ccc(N3CCC(OCc4ccc(Cl)cc4)CC3)cc2)CC1 | FALSE |
| C=Cc1cccc(C(=O)C2CCN(c3ccc(S(=O)(=O)C4(C(=O)NO)CCOCC4)cc3)CC2)c1 | FALSE |
| O=C(NO)C1(S(=O)(=O)c2ccc(Oc3ccc(OC(F)(F)F)cc3)cc2)CCN(S(=O)(=O)Cc2ccccc2)CC1 | TRUE |
